Entries and their melting point values follow.

Challenge: Record request: melting point value, item C#CCn1c(C#N)ccc1-c1ccc2c(c1)C(C)(C)OC(=O)N2 [Example 7]
Response given: 222 to 224 °C

Challenge: Can you look up the measured melting point of CCCCCn1c(C#N)ccc1-c1ccc2c(c1)C(C)(C)OC(=O)N2 [Example 11] for me?
Response given: 128 to 131 °C

Challenge: May I ask what melting point has been recorded for CCOc1cc(CCNC(=O)Cn2c(C#N)ccc2-c2ccc3c(c2)C(C)(C)OC(=O)N3)ccc1OC [Example 10] ?
Response given: 160 to 162 °C

* * *

Property: melting point; scope: individual compounds

[
  {
    "Compound": "CCn1c(C#N)ccc1-c1ccc2c(c1)C(C)(C)OC(=O)N2 [Example 6]",
    "melting point": "200 to 202 °C"
  },
  {
    "Compound": "CN1C(=O)OC(C)(C)c2cc(-c3ccc(C#N)[nH]3)ccc21 [Example 12]",
    "melting point": "256 to 257 °C (dec.)"
  },
  {
    "Compound": "CC1(C)OC(=O)Nc2ccc(-c3ccc(C#N)[nH]3)cc21 [Example 1]",
    "melting point": "241 to 242 °C"
  },
  {
    "Compound": "CC1(C)C(=O)Nc2ccc(C3(C#N)C=CC=N3)cc21 (stereo not drawn) [Example 3]",
    "melting point": "255.9 to 257.9 °C"
  },
  {
    "Compound": "CC1(C)OC(=O)Nc2ccc(-c3ccc(C#N)n3CC(=O)O)cc21 [Example 9]",
    "melting point": "207 to 209 °C"
  }
]

Challenge: So what's the measured melting point for this one? CC(C)(C)OC(=O)Cn1c(C#N)ccc1-c1ccc2c(c1)C(C)(C)OC(=O)N2 [Example 8]
Response given: 188 to 190 °C

These data points were gathered from patent US7846924B2.
